Recorded values, source patent US20210139581A1.

Test System: T1, human CD33 (human, UniProt P20138 18-259, limits assumed)
T1 construct: Human CD33 immobilized on the BLI sensor tip or the BIAcore C1 chip; also called Siglec-3
T1 sequence (P20138 18-259 limits assumed): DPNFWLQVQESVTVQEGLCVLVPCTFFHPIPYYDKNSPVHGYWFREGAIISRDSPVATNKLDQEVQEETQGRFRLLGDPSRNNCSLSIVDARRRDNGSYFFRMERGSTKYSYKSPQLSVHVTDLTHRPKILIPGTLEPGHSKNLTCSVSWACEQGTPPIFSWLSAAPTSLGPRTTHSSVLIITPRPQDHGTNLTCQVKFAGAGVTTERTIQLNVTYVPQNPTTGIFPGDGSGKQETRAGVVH
Test Protocol: BLI (ForteBio), Fab 100 nM on immobilized CD33
Metric: pKd
Expect pKd as a plain number equal to -log10 of the molar concentration.

Answered cases to consult:
AB-64.3 (antibody, V domains shown) VH: QVQLVQSGAEVKKPGASVKISCKASGYTFTDYNLHWVRQAPGQGLEWIGFIYPSNGITGYAEKFEGRATLTVDNSTSTAYMELSSLRSEDTAVYYCARSFVDYFDYWGQGTLLTVSS VL: DIVLTQSPDSLAVSLGERATINCRASQDVSTSTYSYMHWYQQKPGQPPKLLIKYASYLESGVPDRFSGSGSGTDFTLTISSLQAEDVAVYYCEHSWEIPLTFGQGTKLEIK	9.36
AB-H64 (antibody, V domains shown, Humanized variant of murine 2F5.1; also called parental humanized antibody) VH: QVQLVQSGAEVKKPGASVKISCKASGYTFTDYNLHWVRQAPGQGLEWIGFIYPSNGITGYAQKFQGRATLTVDNSTSTAYMELSSLRSEDTAVYYCARSTVDYFDYWGQGTLLTVSS VL: DIVLTQSPDSLAVSLGERATINCRASQSVSTSTYSYMHWYQQKPGQPPKLLIKYASNLESGVPDRFSGSGSGTDFTLTISSLQAEDVAVYYCQHSWEIPLTFGQGTKLEIK	8.54

Now, please, on to the next binder.
// pKd lookup, binder = AB-64.2 (antibody, V domains shown) VH: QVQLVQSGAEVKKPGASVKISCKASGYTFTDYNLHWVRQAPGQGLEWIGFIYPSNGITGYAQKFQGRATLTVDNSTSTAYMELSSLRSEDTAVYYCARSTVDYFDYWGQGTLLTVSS VL: DIVLTQSPDSLAVSLGERATINCRVSQDVSTSTYSYMHWYQQKPGQPPKLLIKYASNLESGVPDRFSGSGSGTDFTLTISSLQAEDVAVYYCQHSWEIPLTFGQGTKLEIK , result: 9.10
